These entries and their values trace back to ChEMBL document CHEMBL1136761.

Biological target: Sodium-dependent dopamine transporter (Rattus norvegicus, UniProt P23977)
Sequence (P23977 whole entry): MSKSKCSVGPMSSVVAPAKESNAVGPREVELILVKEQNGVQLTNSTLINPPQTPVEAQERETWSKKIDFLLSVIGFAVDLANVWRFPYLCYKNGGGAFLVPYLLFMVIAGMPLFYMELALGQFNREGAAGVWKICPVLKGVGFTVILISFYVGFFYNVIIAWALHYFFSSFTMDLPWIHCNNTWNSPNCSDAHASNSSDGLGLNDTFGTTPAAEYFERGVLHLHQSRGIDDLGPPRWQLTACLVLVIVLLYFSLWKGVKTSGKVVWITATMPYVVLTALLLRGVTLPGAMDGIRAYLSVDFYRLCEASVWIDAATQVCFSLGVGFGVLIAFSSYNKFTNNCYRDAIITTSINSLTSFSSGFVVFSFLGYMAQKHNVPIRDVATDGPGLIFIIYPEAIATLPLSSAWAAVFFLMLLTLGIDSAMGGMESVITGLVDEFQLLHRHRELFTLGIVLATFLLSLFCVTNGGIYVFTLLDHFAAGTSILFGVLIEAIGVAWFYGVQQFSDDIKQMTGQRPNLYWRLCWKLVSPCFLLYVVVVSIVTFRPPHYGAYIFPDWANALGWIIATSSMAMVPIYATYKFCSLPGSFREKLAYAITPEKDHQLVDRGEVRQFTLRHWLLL
Test: Inhibition of [3H]dopamine uptake via rat dopamine transporter.
pKi: −log10 of the molar value.
Each entry below lists one item and its recorded pKi value.
resultType: pKi

O=[N+]([O-])c1ccc(CN2CCC(CCOC(c3ccc(F)cc3)c3ccc(F)cc3)CC2)cc1; 8.16
O=[N+]([O-])c1ccc(CN2CCC(CCOC(c3ccccc3)c3ccccc3)CC2)cc1; 8.57
Ic1ccc(CN2CCC(CCOC(c3ccccc3)c3ccccc3)CC2)cc1; 8.29
Fc1ccc(C(OCCC2CCN(Cc3ccc4ccccc4c3)CC2)c2ccc(F)cc2)cc1; 8.14
Fc1ccc(CN2CCC(CCOC(c3ccc(F)cc3)c3ccc(F)cc3)CC2)cc1; 8.42
Brc1ccc(CN2CCC(CCOC(c3ccccc3)c3ccccc3)CC2)cc1; 8.28
Fc1ccc(C(OCCC2CCN(Cc3ccc(I)cc3)CC2)c2ccc(F)cc2)cc1; 7.87

====

Molecular target: Sodium-dependent dopamine transporter (Rattus norvegicus, UniProt P23977)
Assay: Affinity at rat dopamine transporter using [125I]RTI-55 displacement.
resultType: Ki (nM)

Fc1ccc(CN2CCC(CCOC(c3ccc(F)cc3)c3ccc(F)cc3)CC2)cc1; 2.3
Fc1ccc(C(OCCC2CCN(Cc3ccc(Cl)cc3)CC2)c2ccc(F)cc2)cc1; 1.2
Fc1ccc(CN2CCC(CCOC(c3ccccc3)c3ccccc3)CC2)cc1; 5.1
Fc1ccc(C(OCCC2CCN(Cc3ccc(I)cc3)CC2)c2ccc(F)cc2)cc1; 2.1
Ic1ccc(CN2CCC(CCOC(c3ccccc3)c3ccccc3)CC2)cc1; 7.2
Fc1ccc(C(OCCC2CCN(Cc3ccc4ccccc4c3)CC2)c2ccc(F)cc2)cc1; 0.7
